- MEASUREMENT_TARGET: JAK1 (Homo sapiens (Human), UniProt P23458)
- Sequence (P23458 875-1153): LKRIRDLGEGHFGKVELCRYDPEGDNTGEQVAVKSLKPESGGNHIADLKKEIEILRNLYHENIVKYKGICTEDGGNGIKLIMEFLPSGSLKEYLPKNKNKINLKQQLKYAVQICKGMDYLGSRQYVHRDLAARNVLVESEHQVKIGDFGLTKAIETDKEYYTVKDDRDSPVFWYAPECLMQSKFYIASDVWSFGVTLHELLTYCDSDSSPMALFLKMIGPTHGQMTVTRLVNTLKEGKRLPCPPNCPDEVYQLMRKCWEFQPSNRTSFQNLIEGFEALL
- ASSAY_SUMMARY: Jak Biochemical HTRF Assay, JAK1
- CONDITIONS: HTRF biochemical assay, GST-tagged catalytic domain; top concentration tested […]; read-out: JAK1 IC50
pIC50: −log10 of the molar value.
MEASURED_PROPERTY: pIC50

Worked examples, 5 compounds total:
COMPOUND | pIC50
N#CCC1(n2cc(C(N)=O)c(Nc3ccnc(F)c3)n2)CCN(Cc2ccco2)CC1 [Example 22-19] | 9.15
N#CCC1(n2cc(C(N)=O)c(Nc3ccnc(F)c3)n2)CCN(C(=O)CC2CCCO2)CC1 (centres unmarked) [Example 34-39] | 9.05
CC(C)[C@H](O)C(=O)N1CCC(CC#N)(n2cc(C(N)=O)c(Nc3ccnc(F)c3)n2)CC1 [Example 34-47] | 8.70
Cc1ccc(NC(=O)N2CC(CC#N)(n3cc(C(N)=O)c(Nc4ccccc4)n3)C2)cc1 [Example 38-6] | 8.70
N#CCC1(n2cc(C(N)=O)c(Nc3ccc(F)cc3)n2)CCN(c2ccc(C(F)(F)F)nc2)CC1 [Example 3-28] | 9.22

P = Cc1ccc(CN2CCC(CC#N)(n3cc(C(N)=O)c(Nc4ccccc4)n3)CC2)cc1 [Example 21-7]
Q = N#CCC1(n2cc(C(N)=O)c(Nc3ccc(F)cc3)n2)CCC(Nc2ccc(Cl)cc2)CC1 (centres unmarked) [Example 40-52]
Of P versus Q , which is the one with smaller reported pIC50? Bench note: the answer is the label of the chosen record.
P
(P: 7.96, Q: 9.22)

Cited source: patent US9328099B2
